- Test system: Monocotyledonous and dicotyledonous test plants
- ASSAY: Herbicidal action, application pre-emergence (Example B1)
- Type: in vivo
- Set-up: key: 10=total damage to plant; 0=no damage to plant
- STATED CONDITIONS: Poa trivialis, 1000 g/ha, evaluated after 9 or 13 days
PROPERTY MEASURED: POATR herbicidal action (damage score 0-10)

>  <COMPOUND>
Cn1nc(OC(F)F)c(CS(=O)(=O)C2=NOC(C)(C)C2F)c1C(F)(F)F (centres unmarked) [2.31]

>  <MEASUREMENT>
10

$$$$
>  <COMPOUND>
Cn1nc(C(F)(F)F)c(C[S+]([O-])C2=NOC(C)(C)C2Br)c1OC(F)F (centres unmarked) [Compound No. 2.05]

>  <MEASUREMENT>
0

$$$$
>  <COMPOUND>
Cn1nc(OC(F)F)c(C[S+]([O-])C2=NOC(C)(C)C2F)c1C(F)(F)F (single isomer, unassigned) [2.30]

>  <MEASUREMENT>
9

$$$$
>  <COMPOUND>
COc1ncc(C[S+]([O-])C2=NOC(C)(C)C2F)c(C(F)(F)F)n1 (centres unmarked) [5.02]

>  <MEASUREMENT>
10

$$$$
>  <COMPOUND>
Cn1cc(C(F)(F)F)c(CS(=O)(=O)C2=NOC(C)(C)C2F)n1 (centres unmarked) [4.03]

>  <MEASUREMENT>
10

$$$$
>  <COMPOUND>
Cn1nc(OC(F)F)cc1CSC1=NOC(C)(C)C1F (centres unmarked) [Compound No. 6.08]

>  <MEASUREMENT>
9

$$$$
>  <COMPOUND>
Cn1nc(C(F)(F)F)c(CS(=O)(=O)C2=NOC(C)(C)C2F)c1F (centres unmarked) [2.56]

>  <MEASUREMENT>
10

$$$$
>  <COMPOUND>
CC1(C)ON=C(S(=O)(=O)C(F)(F)c2ccccc2OC(F)(F)F)C1F (centres unmarked) [Compound No. 1.12]

>  <MEASUREMENT>
0

$$$$
>  <COMPOUND>
COCCOc1c(C[S+]([O-])C2=NOC(C)(C)C2F)c(C(F)(F)F)nn1C (mixture of isomers) [2.58]

>  <MEASUREMENT>
10

$$$$
>  <COMPOUND>
Cn1nc(C(F)(F)F)c(CS(=O)(=O)C2=NOC(C)(C)C2Cl)c1OCC(F)(F)F (centres unmarked) [Compound No. 2.15]

>  <MEASUREMENT>
10

$$$$
>  <COMPOUND>
CCn1ncc(CSC2=NOC(C)(C)C2F)n1 (centres unmarked) [Compound No. 7.34]

>  <MEASUREMENT>
8

$$$$
>  <COMPOUND>
CCn1ncc(C[S+]([O-])C2=NOC(C)(C)C2F)n1 (mixture of isomers) [7.35]

>  <MEASUREMENT>
9

$$$$
>  <COMPOUND>
CC1(C)ON=C(SCc2cccnc2Cl)C1F (centres unmarked) [Compound No. 3.04]

>  <MEASUREMENT>
7

$$$$
>  <COMPOUND>
Cn1nc(C(F)(F)F)c(C[S+]([O-])C2=NOC(C)(C)C2Cl)c1OC(F)F (mixture of isomers) [2.17]

>  <MEASUREMENT>
10

$$$$
>  <COMPOUND>
Cn1nc(C(F)(F)F)c(C[S+]([O-])C2=NOC(C)(C)C2Br)c1OCC(F)(F)F (mixture of isomers) [2.02]

>  <MEASUREMENT>
5

$$$$
>  <COMPOUND>
CC(c1c(C(F)(F)F)nn(C)c1OC(F)F)S(=O)(=O)C1=NOC(C)(C)C1F (mixture of isomers) [Compound No. 2.27]

>  <MEASUREMENT>
10

$$$$
>  <COMPOUND>
CC(C)n1nc(C[S+]([O-])C2=NOC(C)(C)C2F)c(C(F)(F)F)n1 (single isomer, unassigned) [7.26]

>  <MEASUREMENT>
6

$$$$
>  <COMPOUND>
CC(C)n1nc(CS(=O)(=O)C2=NOC(C)(C)C2F)c(C(F)(F)F)n1 (centres unmarked) [7.27]

>  <MEASUREMENT>
0

$$$$
>  <COMPOUND>
COCCn1nc(CSC2=NOC(C)(C)C2F)c(C(F)(F)F)n1 (centres unmarked) [Compound No. 7.18]

>  <MEASUREMENT>
0

$$$$
>  <COMPOUND>
Cn1nc(OCC(F)(F)F)c(C[S+]([O-])C2=NOC(C)(C)C2F)c1C(F)(F)F (single isomer, unassigned) [2.43]

>  <MEASUREMENT>
10

$$$$

----------
Reported POATR herbicidal action (damage score 0-10) values are given for each entry in this list.
- Tested on: Monocotyledonous and dicotyledonous test plants
- ASSAY: Herbicidal action, application pre-emergence (Example B1)
- Assay type: in vivo
- Set-up: key: 10=total damage to plant; 0=no damage to plant
- STATED CONDITIONS: Poa trivialis, 1000 g/ha, evaluated after 9 or 13 days
PROPERTY MEASURED: POATR herbicidal action (damage score 0-10)

>  <COMPOUND>
Cn1nc(C(F)(F)F)c(C[S+]([O-])C2=NOC(C)(C)C2F)c1OCC(F)(F)F (mixture of isomers) [2.08]

>  <MEASUREMENT>
10

$$$$
>  <COMPOUND>
Cn1nc(C(F)(F)F)c(Cl)c1CSC1=NOC(C)(C)C1F (centres unmarked)

>  <MEASUREMENT>
4

$$$$
>  <COMPOUND>
CC1(C)ON=C(S(=O)(=O)C(F)(F)c2c(F)cccc2F)C1F (centres unmarked)

>  <MEASUREMENT>
8

$$$$
>  <COMPOUND>
Cn1nc(C(F)(F)F)c(C[S+]([O-])C2=NOC(C)(C)C2F)c1OC(F)F (single isomer, unassigned) [2.25]

>  <MEASUREMENT>
10

$$$$
>  <COMPOUND>
Cc1nc(C(Cl)S(=O)(=O)C2=NOC(C)(C)C2F)n(C)n1 (racemic)

>  <MEASUREMENT>
8

$$$$
>  <COMPOUND>
Cn1nc(C(F)(F)F)c(CS(=O)(=O)C2=NOC(C)(C)C2Br)c1OC(F)F (centres unmarked)

>  <MEASUREMENT>
9

$$$$
>  <COMPOUND>
CC(Oc1c(CS(=O)(=O)C2=NOC(C)(C)C2F)c(C(F)(F)F)nn1C)C(F)(F)F (mixture of isomers)

>  <MEASUREMENT>
10

$$$$
>  <COMPOUND>
Cn1nc(C(F)(F)F)cc1C[S+]([O-])C1=NOC(C)(C)C1F (mixture of isomers) [6.02]

>  <MEASUREMENT>
10

$$$$

----------
- Test system: Monocotyledonous and dicotyledonous test plants
- ASSAY: Herbicidal action, application pre-emergence (Example B1)
- Format: in vivo
- Design: key: 10=total damage to plant; 0=no damage to plant
- STATED CONDITIONS: Agrostis-tenius, 1000 g/ha, evaluated after 9 or 13 days
Reported AGSTE herbicidal action (damage score 0-10) values are given for each entry in this list.
PROPERTY MEASURED: AGSTE herbicidal action (damage score 0-10)

>  <MOLECULE>
Cn1nc(OC(F)F)cc1CS(=O)(=O)C1=NOC(C)(C)C1F (stereo not shown) [6.10]

>  <MEASURED TARGET>
Monocotyledonous and dicotyledonous test plants

>  <MEASUREMENT>
10

$$$$
>  <MOLECULE>
CC1(C)ON=C([S+]([O-])Cc2cccnc2Cl)C1F (mixture of isomers) [3.05]

>  <MEASURED TARGET>
Monocotyledonous and dicotyledonous test plants

>  <MEASUREMENT>
9

$$$$
>  <MOLECULE>
Cn1nc(OCC(F)(F)F)c(C[S+]([O-])C2=NOC(C)(C)C2F)c1C(F)(F)F (single isomer, unassigned) [2.42]

>  <MEASURED TARGET>
Monocotyledonous and dicotyledonous test plants

>  <MEASUREMENT>
0

$$$$
>  <MOLECULE>
Cn1nc(C(F)(F)F)c(C[S+]([O-])C2=NOC(C)(C)C2F)c1OC(F)F (mixture of isomers) [2.23]

>  <MEASURED TARGET>
Monocotyledonous and dicotyledonous test plants

>  <MEASUREMENT>
10

$$$$
>  <MOLECULE>
Cn1nc(C(F)(F)F)c(C[S+]([O-])C2=NOC(C)(C)C2Cl)c1OC(F)F (mixture of isomers) [2.17]

>  <MEASURED TARGET>
Monocotyledonous and dicotyledonous test plants

>  <MEASUREMENT>
10

$$$$
>  <MOLECULE>
CC(C)n1nc(C[S+]([O-])C2=NOC(C)(C)C2F)c(C(F)(F)F)n1 (single isomer, unassigned) [7.26]

>  <MEASURED TARGET>
Monocotyledonous and dicotyledonous test plants

>  <MEASUREMENT>
9

$$$$
>  <MOLECULE>
Cc1nc(C[S+]([O-])C2=NOC(C)(C)C2F)n(C)n1 (single isomer, unassigned) [8.03]

>  <MEASURED TARGET>
Monocotyledonous and dicotyledonous test plants

>  <MEASUREMENT>
10

$$$$
>  <MOLECULE>
CC1(C)ON=C(SCc2cccnc2Cl)C1F (stereo not shown) [Compound No. 3.04]

>  <MEASURED TARGET>
Monocotyledonous and dicotyledonous test plants

>  <MEASUREMENT>
8

$$$$
>  <MOLECULE>
Cn1nc(C(F)(F)F)cc1C[S+]([O-])C1=NOC(C)(C)C1F (mixture of isomers) [6.02]

>  <MEASURED TARGET>
Monocotyledonous and dicotyledonous test plants

>  <MEASUREMENT>
10

$$$$
>  <MOLECULE>
CC1(C)ON=C([S+]([O-])Cc2c(F)cccc2F)C1F (single isomer, unassigned) [1.15]

>  <MEASURED TARGET>
Monocotyledonous and dicotyledonous test plants

>  <MEASUREMENT>
10

$$$$
>  <MOLECULE>
Cn1nc(C(F)(F)F)c(CS(=O)(=O)C2=NOC(C)(C)C2Br)c1OC(F)F (stereo not shown) [Compound No. 2.06]

>  <MEASURED TARGET>
Monocotyledonous and dicotyledonous test plants

>  <MEASUREMENT>
10

$$$$
>  <MOLECULE>
CCc1nn(C)nc1CSC1=NOC(C)(C)C1F (stereo not shown) [Compound No. 7.31]

>  <MEASURED TARGET>
Monocotyledonous and dicotyledonous test plants

>  <MEASUREMENT>
9

$$$$
>  <MOLECULE>
Cn1nc(C(F)(F)F)c(C[S+]([O-])C2=NOC(C)(C)C2Br)c1OCC(F)(F)F (mixture of isomers) [2.02]

>  <MEASURED TARGET>
Monocotyledonous and dicotyledonous test plants

>  <MEASUREMENT>
10

$$$$
>  <MOLECULE>
Cn1nc(C(F)(F)F)cc1CSC1=NOC(C)(C)C1F (stereo not shown) [Compound No. 6.01]

>  <MEASURED TARGET>
Monocotyledonous and dicotyledonous test plants

>  <MEASUREMENT>
9

$$$$
>  <MOLECULE>
CCn1cc(CS(=O)(=O)C2=NOC(C)(C)C2F)c(C(F)(F)F)n1 (stereo not shown) [2.47]

>  <MEASURED TARGET>
Monocotyledonous and dicotyledonous test plants

>  <MEASUREMENT>
10

$$$$
>  <MOLECULE>
Cc1nn(C)nc1C[S+]([O-])C1=NOC(C)(C)C1F (single isomer, unassigned) [7.02]

>  <MEASURED TARGET>
Monocotyledonous and dicotyledonous test plants

>  <MEASUREMENT>
10

$$$$
